Here, each record is paired with measured melting point data.
VALUE TYPE: melting point

Cn1c(C(F)(F)F)cc(=O)n(-c2cc(OC(=O)CCC(=O)OCCCl)c(Cl)cc2F)c1=O ... 94 to 96 °C
Cc1ncc(C#N)c(Nc2ccc3[nH]ccc3c2C)c1-c1ccc(OCCN2CCN(C)CC2)cc1 ... 183 to 184 °C
COC(=O)CNC(=O)NCCCCC1CCSS1 (stereo not given) ... 62 to 64 °C
COCOc1cc(/C=C/C(=O)/C=C/c2cc(OCOC)cc(OCOC)c2)cc(OCOC)c1 ... 90 to 92 °C
O=C(O)C1(c2ccc(CN3CCN(c4ccc(F)cc4F)CC3)cc2)CC1 ... 70 to 74 °C
Cc1c(F)c(F)c(COC(=O)[C@@H]2[C@@H](C=O)C2(C)C)c(F)c1F ... 43.2 °C
Brc1ccc(Cc2cc(Br)c(Cc3ccc(Br)cc3)cc2Br)cc1 ... 161 to 167 °C
Cc1cccc(NC(=S)SCC(=O)C(C)(C)C)n1 ... 80 °C
CCCCc1c2c(nn1C(C)(C)C)c(N)nc1ccccc12 ... 222 to 223 °C
CN1C(=O)CC[C@]2(C)c3ccc(-c4ccc(C#N)cc4)cc3CC[C@@H]12 ... 148 to 150 °C

Cited source for all entries: a melting point compilation (Tetko et al.; mined from patent text by program, amines drawn as free bases though some values may be those of a salt)
